Values were extracted from ChEMBL document CHEMBL1123027.

System: Rift Valley fever virus
Test: Therapeutic index against Rift valley fever virus.
Settings: read-out: Therapeutic index
measurementType: selectivity ratio
# respond with the number and nothing more

Any idea what its selectivity ratio is? The molecule is `NC(=O)c1ncn([C@@H]2O[C@H](CO)[C@@H](O)[C@H]2O)n1` 4

* * *

Test system: Human respirovirus 3
Assay: In vitro antiviral activity was tested against parainfluenza virus type 3 (para3) virus
Assay type: functional, para influenza virus
Details: read-out: ED50 (the source's name)
measurementType: EC50

Endpoint output: EC50 of CCSc1c(C(N)=O)ncn1C1O[C@H](CO)[C@@H](O)[C@H]1O (stereo partly specified) . Value? > 5 mM

* * *

Reported values of selectivity ratio for individual entries
Tested on: Rift Valley fever virus
Test: Therapeutic index against Rift valley fever virus.
Assay type: organism-based
Conditions: in vivo, read-out: Therapeutic index
No unit in the answer, only the number.

Recorded results for 5 molecules are shown here.
[
  {
    "molecule": "NC(=O)c1ncn(C2O[C@H](CO)[C@@H](O)[C@H]2O)c1S (stereo partly specified)",
    "measurementType": "selectivity ratio",
    "result": 1.1
  },
  {
    "molecule": "CCSc1c(C(N)=O)ncn1C1O[C@H](CO)[C@@H](O)[C@H]1O (stereo partly specified)",
    "measurementType": "selectivity ratio",
    "result": 1.4
  },
  {
    "molecule": "CCS(=O)(=O)c1c(C(N)=O)ncn1C1O[C@H](CO)[C@@H](O)[C@H]1O (stereo partly specified)",
    "measurementType": "selectivity ratio",
    "result": 1.21
  },
  {
    "molecule": "NC(=O)c1ncn(C2O[C@H](CO)[C@@H](O)[C@H]2O)c1SCc1ccccc1 (stereo partly specified)",
    "measurementType": "selectivity ratio",
    "result": 1.9
  },
  {
    "molecule": "CS(=O)(=O)c1c(C(N)=O)ncn1C1O[C@H](CO)[C@@H](O)[C@H]1O (stereo partly specified)",
    "measurementType": "selectivity ratio",
    "result": 2.8
  }
]

Then this molecule:
Enter reported selectivity ratio observed with Rift Valley fever virus for CSc1c(C(N)=O)ncn1C1O[C@H](CO)[C@@H](O)[C@H]1O (stereo partly specified) 1.2

* * *

Tested on: Rift Valley fever virus
Assay: In vitro antiviral activity was tested against rift valley fever virus(RVF) virus
Assay type: functional
Conditions: read-out: ED50 (the source's name)
measurementType: EC50 (µM)
// return numeric value only (unit: µM, not printed)

Some solved cases for reference:
[
  {
    "compound": "CS(=O)(=O)c1c(C(N)=O)ncn1C1O[C@H](CO)[C@@H](O)[C@H]1O (some centres not stated)",
    "studySystem": "Rift Valley fever virus",
    "result": 8.7
  },
  {
    "compound": "Cc1c(C(N)=O)ncn1C1O[C@H](CO)[C@@H](O)[C@H]1O (some centres not stated)",
    "studySystem": "Rift Valley fever virus",
    "result": 1800
  },
  {
    "compound": "NC(=O)c1ncn(C2O[C@H](CO)[C@@H](O)[C@H]2O)c1SCc1ccccc1 (some centres not stated)",
    "studySystem": "Rift Valley fever virus",
    "result": 1000
  }
]

Requested read-out: EC50. Entry: CSc1c(C(N)=O)ncn1C1O[C@H](CO)[C@@H](O)[C@H]1O (some centres not stated) 1800

* * *

We begin with a simple list: items and their reported selectivity ratio.
System: Venezuelan equine encephalomyelitis virus (VEE)
Test: Therapeutic index against Venezuelan equine encephalomyelitis virus.
Format: organism-based
Settings: venezuelan equine encephalitis virus, in vivo; read-out: Therapeutic index
The reply should be a number, written without any unit.

[
  {
    "molecule": "NC(=O)c1ncn([C@@H]2O[C@H](CO)[C@@H](O)[C@H]2O)n1",
    "selectivity ratio": 1.5
  }
]

Okay, now this molecule:
# input molecule: CS(=O)(=O)c1c(C(N)=O)ncn1C1O[C@H](CO)[C@@H](O)[C@H]1O (some centres not stated) ; wanted: its selectivity ratio 1.4

* * *

Reported MTC values for the following compounds.
Test system: Mus musculus
Assay: The maximum tolerated dose was evaluated in mice and expressed in terms of mg/kg of body weight
Type: functional

Example entries and their recorded answers appear below.
[
  {
    "compound": "NC(=O)c1ncn(C2O[C@H](CO)[C@@H](O)[C@H]2O)c1SCc1ccccc1 (some centres undefined)",
    "MTC": ">146 mg/kg"
  },
  {
    "compound": "CCS(=O)(=O)c1c(C(N)=O)ncn1C1O[C@H](CO)[C@@H](O)[C@H]1O (some centres undefined)",
    "MTC": ">134 mg/kg"
  },
  {
    "compound": "CS(=O)(=O)c1c(C(N)=O)ncn1C1O[C@H](CO)[C@@H](O)[C@H]1O (some centres undefined)",
    "MTC": ">400 mg/kg"
  }
]

Value lookup for MTC; key = NC(=O)c1ncn(C2O[C@H](CO)[C@@H](O)[C@H]2O)c1S (some centres undefined) >110 mg/kg

* * *

Tested on: Human alphaherpesvirus 2
Test: In vitro antiviral activity was tested against herpes simplex type 2 (HSV-2) virus
Format: functional
Settings: read-out: ED50 (the source's name)
measurementType: pEC50
Please keep in mind that pEC50 is minus log10 of the molar concentration; only the number is needed.

[
  {
    "compound": "Cc1c(C(N)=O)ncn1C1O[C@H](CO)[C@@H](O)[C@H]1O (some centres not stated)",
    "studySystem": "Human alphaherpesvirus 2",
    "result": 2.40
  }
]

// moving on: another record for pEC50
Record request: pEC50 value, item CS(=O)(=O)c1c(C(N)=O)ncn1C1O[C@H](CO)[C@@H](O)[C@H]1O (some centres not stated) 2.30

* * *

The reader will find reported MTC values listed item by item below.
System: Vero
Assay: Maximum tolerated concentration (MTC) was evaluated in vero cells.
Assay type: functional, Chlorocebus sabaeus

[
  {
    "compound": "CCSc1c(C(N)=O)ncn1C1O[C@H](CO)[C@@H](O)[C@H]1O (some centres not stated)",
    "MTC": ">5 mM"
  },
  {
    "compound": "CS(=O)(=O)c1c(C(N)=O)ncn1C1O[C@H](CO)[C@@H](O)[C@H]1O (some centres not stated)",
    "MTC": ">5 mM"
  },
  {
    "compound": "NC(=O)c1ncn(C2O[C@H](CO)[C@@H](O)[C@H]2O)c1SCc1ccccc1 (some centres not stated)",
    "MTC": ">5 mM"
  },
  {
    "compound": "NC(=O)c1ncn(C2O[C@H](CO)[C@@H](O)[C@H]2O)c1S (some centres not stated)",
    "MTC": ">5 mM"
  },
  {
    "compound": "CSc1c(C(N)=O)ncn1C1O[C@H](CO)[C@@H](O)[C@H]1O (some centres not stated)",
    "MTC": "1.6 mM"
  },
  {
    "compound": "CCS(=O)(=O)c1c(C(N)=O)ncn1C1O[C@H](CO)[C@@H](O)[C@H]1O (some centres not stated)",
    "MTC": ">5 mM"
  }
]

Given the compound Cc1c(C(N)=O)ncn1C1O[C@H](CO)[C@@H](O)[C@H]1O (some centres not stated) , what is its reported MTC? 1.6 mM

* * *

Tested on: Venezuelan equine encephalitis virus
Assay: In vitro antiviral activity was tested against venezuelan equine encephalomyelitis (VEE) virus
Assay type: functional
Conditions: read-out: ED50 (the source's name)
pEC50: −log10 of the molar value.
measurementType: pEC50

Guide cases for pEC50, answers given:
[
  {
    "molecule": "CSc1c(C(N)=O)ncn1C1O[C@H](CO)[C@@H](O)[C@H]1O (stereo partly specified)",
    "studySystem": "Venezuelan equine encephalitis virus",
    "pEC50": "< 2.77"
  },
  {
    "molecule": "CS(=O)(=O)c1c(C(N)=O)ncn1C1O[C@H](CO)[C@@H](O)[C@H]1O (stereo partly specified)",
    "studySystem": "Venezuelan equine encephalitis virus",
    "pEC50": 3.19
  },
  {
    "molecule": "CCS(=O)(=O)c1c(C(N)=O)ncn1C1O[C@H](CO)[C@@H](O)[C@H]1O (stereo partly specified)",
    "studySystem": "Venezuelan equine encephalitis virus",
    "pEC50": "< 2.70"
  },
  {
    "molecule": "CCSc1c(C(N)=O)ncn1C1O[C@H](CO)[C@@H](O)[C@H]1O (stereo partly specified)",
    "studySystem": "Venezuelan equine encephalitis virus",
    "pEC50": "< 2.70"
  },
  {
    "molecule": "NC(=O)c1ncn(C2O[C@H](CO)[C@@H](O)[C@H]2O)c1SCc1ccccc1 (stereo partly specified)",
    "studySystem": "Venezuelan equine encephalitis virus",
    "pEC50": 3.00
  }
]

Observed pEC50 on Venezuelan equine encephalitis virus for NC(=O)c1ncn(C2O[C@H](CO)[C@@H](O)[C@H]2O)c1S (stereo partly specified) , please. < 2.70
